Test system: MHH-CALL-4
methodSummary: selective drug sensitivity score (sDSS, relative to normal bone marrow) (sDSS (score)); higher = more potent and effective on the cell line relative to normal bone marrow cells;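 note: ALL cell lines in 384-well plates, five doses spanning 10,000-fold, each plate scaled between vehicle and 100 µmol/L benzalkonium chloride controls, sDSS an adapted area-under-curve metric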
testContext: 72 h
Known selective drug sensitivity score of a selection of molecules

- molecule: "Oc1nc(-c2ccc(C(F)(F)F)cc2)nc2c1CSCC2 [XAV939] (top concentration 10000 nM)"
  selective drug sensitivity score: -0.14
- molecule: "COc1cc(Br)c(Nc2nc(-c3c(C)nc4ncccn34)cs2)c(Br)c1 [PTC-209] (top concentration 10000 nM)"
  selective drug sensitivity score: -2.68
- molecule: "Cc1c(Cn2c(C)nc3c(C(=O)O)cc(N4CCOCC4)cc32)cccc1C(F)(F)F (top concentration 10000 nM)"
  selective drug sensitivity score: 0.58
- molecule: "O=C(Nc1cccnc1)N1CCC(Cc2cccc(Oc3ccc(C(F)(F)F)cn3)c2)CC1 [PF-3845] (top concentration 10000 nM)"
  selective drug sensitivity score: 0.96
- molecule: "Cc1cc2c(C(=O)NC[C@H](C)c3ccccc3)c(O)c(O)cc2c(O)c1-c1c(C)cc2c(C(=O)NC[C@H](C)c3ccccc3)c(O)c(O)cc2c1O [Sabutoclax] (top concentration 25000 nM)"
  selective drug sensitivity score: -7.22
- molecule: "C[C@H]1CNCCCN1S(=O)(=O)c1cccc2cncc(F)c12 [Ripasudil] (top concentration 10000 nM)"
  selective drug sensitivity score: 0.18
- molecule: "CN1CCc2c(c3ccccc3n2Cc2ccc(C(=O)NO)cc2)C1 [Tubastatin_A] (top concentration 10000 nM)"
  selective drug sensitivity score: -0.14
- molecule: "CC1(C)OCCn2c1nc1c(N3CCOCC3)nc(-c3cnc(N)nc3)nc12 [GDC-0084] (top concentration 10000 nM)"
  selective drug sensitivity score: 10.7
- molecule: "C=CCc1cccc(/C=N/NC(=O)CN2CCN(Cc3ccccc3)CC2)c1O [PAC-1] (top concentration 10000 nM)"
  selective drug sensitivity score: 1.18
- molecule: "O=c1[nH]c(C2CCCN2)nc2c1oc1ccc(Cl)cc12 (stereo not drawn) (top concentration 10000 nM)"
  selective drug sensitivity score: -1.2
- molecule: "Cc1cc(Nc2ncc(Cl)c(Nc3ccccc3S(=O)(=O)C(C)C)n2)c(OC(C)C)cc1C1CCNCC1 [Ceritinib] (top concentration 2500 nM)"
  selective drug sensitivity score: -0.74
- molecule: "Nc1cc(COc2c(Cl)cc(C[C@H](N)C(=O)O)cc2Cl)c2oc(-c3ccccc3)nc2c1 [JPH203] (top concentration 5000 nM)"
  selective drug sensitivity score: 1.2
- molecule: "CN(C)CCOc1ccc(/C(=C(/CCCl)c2ccccc2)c2ccccc2)cc1 [Toremifene] (top concentration 10000 nM)"
  selective drug sensitivity score: 0.48
- molecule: "N[C@@H]1CCCN(c2c(/C=C3\\SC(=O)NC3=O)cccc2-c2ccccc2)C1 [AZD1208] (top concentration 10000 nM)"
  selective drug sensitivity score: 3.9
- molecule: "CCN(CC)CCCC(C)Nc1ccnc2cc(Cl)ccc12 (stereo not drawn) [Chloroquine] (top concentration 100000 nM)"
  selective drug sensitivity score: -1.44
- molecule: "COC(=O)c1ccc2c(c1)NC(=O)/C2=C(\\Nc1ccc(N(C)C(=O)CN2CCN(C)CC2)cc1)c1ccccc1 [Nintedanib] (top concentration 10000 nM)"
  selective drug sensitivity score: -1.66
- molecule: "COc1cc2ncnc(Nc3ccc(F)c(Cl)c3)c2cc1NC(=O)/C=C/CN1CCCCC1 [Dacomitinib] (top concentration 1000 nM)"
  selective drug sensitivity score: 1.86
- molecule: "CNC(=O)c1nn(C)c2c1C(C)(C)Cc1cnc(Nc3ccc(N4CCN(C)CC4)cc3)nc1-2 [Milciclib] (top concentration 10000 nM)"
  selective drug sensitivity score: -0.06
- molecule: "CCCCc1nc2cc(/C=C/C(=O)NO)ccc2n1CCN(CC)CC [Pracinostat] (top concentration 10000 nM)"
  selective drug sensitivity score: 6.28
- molecule: "Nc1cccc2c1CN(C1CCC(=O)NC1=O)C2=O (stereo not drawn) [Lenalidomide] (top concentration 100000 nM)"
  selective drug sensitivity score: 5.42
- molecule: "C=CC(=O)N1CCC(Oc2cc3c(Nc4ccc(Cl)c(Cl)c4F)ncnc3cc2OC)CC1 [Poziotinib] (top concentration 1000 nM)"
  selective drug sensitivity score: 0.68
- molecule: "Cn1cnc2c(F)c(Nc3ccc(Br)cc3F)c(C(=O)NOCCO)cc21 [Binimetinib] (top concentration 1000 nM)"
  selective drug sensitivity score: 4.98
- molecule: "NS(=O)(=O)OC[C@@H]1C[C@@H](n2ccc3c(N[C@H]4CCc5ccccc54)ncnc32)C[C@@H]1O [Pevonedistat] (top concentration 10000 nM)"
  selective drug sensitivity score: 11.5

----------
Measured selective drug sensitivity score, listed per entry for reference.
Test system: 380
methodSummary: selective drug sensitivity score (sDSS, relative to normal bone marrow) (sDSS (score)); higher = more potent and effective on the cell line relative to normal bone marrow cells
testContext: 72 h

- compound: "CC1(C)OCCn2c1nc1c(N3CCOCC3)nc(-c3cnc(N)nc3)nc12 [GDC-0084] (top concentration 10000 nM)"
  selective drug sensitivity score: 15
- compound: "COCCOc1cnc2ccn([C@H](C)c3nnc4c(F)cc(-c5cnn(C)c5)cn34)c(=O)c2c1 [AMG-337] (top concentration 10000 nM)"
  selective drug sensitivity score: 3.04
- compound: "C/C=C1\\NC(=O)[C@H]2CSSCC/C=C/[C@H](CC(=O)N[C@H](C(C)C)C(=O)N2)OC(=O)[C@H](C(C)C)NC1=O [Romidepsin] (top concentration 1000 nM)"
  selective drug sensitivity score: 8.56
- compound: "O[C@H]1CC[C@H](Nc2ncc3nc(Nc4c(F)cc(F)cc4F)n([C@H]4CCOC4)c3n2)CC1 [Tanzisertib] (top concentration 10000 nM)"
  selective drug sensitivity score: 0
- compound: "Nc1cccc2c1CN(C1CCC(=O)NC1=O)C2=O (stereo not given) [Lenalidomide] (top concentration 100000 nM)"
  selective drug sensitivity score: 1.62

----------
System: KASUMI-10
methodSummary: selective drug sensitivity score (sDSS, relative to normal bone marrow) (sDSS (score)); higher = more potent and effective on the cell line relative to normal bone marrow cells
testContext: 72 h
A collection of compounds and their measured selective drug sensitivity score
propertyMeasured: selective drug sensitivity score

- compound: "CC(C)(C)c1cnc(CSc2cnc(NC(=O)C3CCNCC3)s2)o1 [SNS-032] (top concentration 10000 nM)"
  numericValue: -2.64
- compound: "Oc1nc(-c2ccc(C(F)(F)F)cc2)nc2c1CSCC2 [XAV939] (top concentration 10000 nM)"
  numericValue: -0.14
- compound: "NS(=O)(=O)OC[C@@H]1C[C@@H](n2ccc3c(N[C@H]4CCc5ccccc54)ncnc32)C[C@@H]1O [Pevonedistat] (top concentration 10000 nM)"
  numericValue: 19.1
- compound: "CS(=O)(=O)N1CCN(Cc2cc3nc(-c4cccc5[nH]ncc45)nc(N4CCOCC4)c3s2)CC1 [Pictilisib] (top concentration 10000 nM)"
  numericValue: 3.96
- compound: "Cn1cc(C[C@@H](N)C(=O)O)c2ccccc21 [1-methyl-D-tryptophan] (top concentration 5000 nM)"
  numericValue: -0.62
- compound: "Nc1nc(F)nc2c1ncn2[C@@H]1O[C@H](CO)[C@@H](O)[C@@H]1O [Fludarabine] (top concentration 10000 nM)"
  numericValue: -0.8
- compound: "COC(=O)c1ccc2c(c1)NC(=O)/C2=C(\\Nc1ccc(N(C)C(=O)CN2CCN(C)CC2)cc1)c1ccccc1 [Nintedanib] (top concentration 10000 nM)"
  numericValue: 14.1
- compound: "CC(C)c1cc(C(=O)N2Cc3ccc(CN4CCN(C)CC4)cc3C2)c(O)cc1O [Onalespib] (top concentration 2500 nM)"
  numericValue: 3.92
- compound: "CCn1c(-c2nonc2N)nc2cnc(Oc3cccc(NC(=O)c4ccc(OCCN5CCOCC5)cc4)c3)cc21 (top concentration 10000 nM)"
  numericValue: -2.74
- compound: "CCc1nc(C(N)=O)c(Nc2ccc(N3CCC(N4CCN(C)CC4)CC3)c(OC)c2)nc1NC1CCOCC1 [Gilteritinib] (top concentration 1000 nM)"
  numericValue: 10.4
- compound: "COc1cc(Br)c(Nc2nc(-c3c(C)nc4ncccn34)cs2)c(Br)c1 [PTC-209] (top concentration 10000 nM)"
  numericValue: 0.92
- compound: "CN(CC(=O)N(Cc1ccc(C2CCCCC2)cc1)c1ccc(C(=O)O)cc1)S(=O)(=O)c1c(F)c(F)c(F)c(F)c1F [SH-4-54] (top concentration 25000 nM)"
  numericValue: -3.64
- compound: "Nc1ncnc2c1c(COc1cccc(Cl)c1)nn2C1CCOCC1 (top concentration 10000 nM)"
  numericValue: -0.64
- compound: "O=C(O)C(=O)O.[NH-][C@@H]1CCCC[C@H]1[NH-].[Pt+2] [Oxaliplatin] (top concentration 100000 nM)"
  numericValue: 14.2
- compound: "Nc1nc(Cl)nc2c1ncn2[C@@H]1O[C@H](CO)[C@@H](O)[C@@H]1F [Clofarabine] (top concentration 10000 nM)"
  numericValue: 1
- compound: "C[C@]1(c2nc3c(C(N)=O)cccc3[nH]2)CCCN1 [Veliparib] (top concentration 10000 nM)"
  numericValue: -1.08
- compound: "CNCc1ccc(-c2[nH]c3cc(F)cc4c3c2CCNC4=O)cc1 [Rucaparib] (top concentration 10000 nM)"
  numericValue: 1.12
- compound: "O=C1c2c(O)ccc(O)c2C(=O)c2c(NCCNCCO)ccc(NCCNCCO)c21 [Mitoxantrone] (top concentration 1000 nM)"
  numericValue: 12.7
- compound: "CC(C)C(=O)Nc1ccc([N+](=O)[O-])c(C(F)(F)F)c1 [Flutamide] (top concentration 10000 nM)"
  numericValue: -0.56
- compound: "CCN(CC)CCN(Cc1ccc(-c2ccc(C(F)(F)F)cc2)cc1)C(=O)Cn1c(SCc2ccc(F)cc2)nc(=O)c2c1CCC2 [Darapladib] (top concentration 1000 nM)"
  numericValue: -1.22
- compound: "Cc1cc(-c2ncc(CC(=O)Nc3ccc(-c4cnccn4)cn3)cc2C)ccn1 [NVP-LGK974] (top concentration 10000 nM)"
  numericValue: 0.8
- compound: "NC(=S)N/N=C/c1ncccc1N [Triapine] (top concentration 10000 nM)"
  numericValue: 6.88
- compound: "CNC(=O)c1cccc2cc(Oc3ccnc4cc(OCC5(N)CC5)c(OC)cc34)ccc12 [Lucitanib] (top concentration 10000 nM)"
  numericValue: 5.18
- compound: "CN1CC[C@H](c2c(O)cc(O)c3c(=O)cc(-c4ccccc4Cl)oc23)[C@H](O)C1 [Alvocidib] (top concentration 10000 nM)"
  numericValue: -2.9
- compound: "CCc1cc2c(cc1N1CCC(N3CCOCC3)CC1)C(C)(C)c1[nH]c3cc(C#N)ccc3c1C2=O [Alectinib] (top concentration 1000 nM)"
  numericValue: 1.68
- compound: "COc1cc2c(cc1OCCCN1CCCC1)N=C(N)C21CCC1 [A-366] (top concentration 25000 nM)"
  numericValue: 1.46
